{"columns": ["molecule", "melting point"],
 "data": [
  ["CCCCCCCCCCCCCCCBr", "19 °C"],
  ["CCOC(=O)[C@H](O)[C@@H](O)C(=O)OCC", "17 °C"],
  ["O=[N+]([O-])c1ccc(N=Nc2ccc(O)cc2O)cc1", "200 °C"],
  ["ClC(Cl)c1ccccc1", "-17 °C"],
  ["Nc1ccc(Cc2ccc(N)cc2)cc1", "92.5 °C"],
  ["CCNc1nc(Cl)nc(N(CC)CC)n1", "101 °C"],
  ["Cc1nc([N+](=O)[O-])cn1-c1ccc([N+](=O)[O-])cc1", "186 °C"],
  ["CCC(C)(CC)c1cc(NC(=O)c2c(OC)cccc2OC)on1", "178 °C"],
  ["COC(=O)C1(S(=O)(=O)c2ccc(Br)cc2)CCCCC1", "112 °C"],
  ["O=[N+]([O-])c1ccc(O)cc1C(F)(F)F", "76 °C"],
  ["O=S(=O)(c1ccc(O)cc1)c1ccc(O)cc1", "240 °C"],
  ["Cc1cc(Br)ccc1N", "59.5 °C"],
  ["O=C1CCCCCN1", "69.3 °C"],
  ["CCCCCCCCCCCCCCCC(=O)OC[C@H](COP(=O)([O-])OCC[N+](C)(C)C)OC(=O)CCCCCCCCCCCCCCC", "234 °C"],
  ["Nc1ccccc1Nc1ccccc1", "79.5 °C"],
  ["C[C@]12CC[C@@H](O)C[C@@H]1CC[C@@H]1[C@@H]2CC[C@]2(C)C(=O)CC[C@@H]12", "182 °C"],
  ["O=Cc1ccc(O)c(O)c1O", "160 °C"],
  ["CC(C)C(C)(C)C(C)(C)C", "-36.4 °C"],
  ["O=[N+]([O-])c1ccc(C(F)(F)F)cc1", "39 °C"],
  ["CC(C)CCCCCOC(=O)C(C)Oc1ccc(Cl)cc1Cl (configuration not stated)", "-37 °C"],
  ["Nc1ccccc1C(=O)OCC=Cc1ccccc1", "61 °C"],
  ["Clc1c(Cl)c(Cl)c(Cl)c(Cl)c1Cl", "232 °C"],
  ["CCCCCCCCCCCCCCCCO", "49.3 °C"],
  ["COc1cc(Cc2cnc(N)nc2N)cc(OC)c1Br", "226 °C"],
  ["C=C1CC(=O)O1", "-6.5 °C"],
  ["C[N+](C)(C)CCOC(=O)CCC(=O)OCC[N+](C)(C)C.[Br-].[Br-]", "225 °C"],
  ["O=C(O)C1(O)c2ccccc2-c2ccc(Cl)cc21 (configuration not stated)", "152 °C"],
  ["CN/C(=N\\C#N)NCCSCc1nc[nH]c1C", "142 °C"],
  ["CN1CCC2=C(C1)C(c1ccccc1)c1ccccc12 (configuration not stated)", "91 °C"],
  ["O=C(O)c1ccncc1C(=O)O", "256 °C"],
  ["FC(Br)(Br)Br", "-73.6 °C"],
  ["Cc1cccc(C)c1", "-47.8 °C"],
  ["O=c1oc2cc(O)ccc2s1", "160 °C"],
  ["C=CCCCCCCC", "-81.3 °C"],
  ["CC(C)=CCC/C(C)=C/C=C/C(C)=C/C=C/C(C)=C/C=C/C=C(C)/C=C/C=C(C)/C=C/C1=C(C)CCCC1(C)C", "178 °C"],
  ["CCCC(C)(COC(N)=O)COC(=O)NC(C)C (configuration not stated)", "92 °C"],
  ["O=C(O)c1cc(O)ccc1O", "200 °C"],
  ["CCC1CCC(C)CC1 (configuration not stated)", "-80.8 °C"],
  ["NS(=O)(=O)c1cc2c(cc1Cl)CN(C1CCCCC1)C2=O", "267 °C"],
  ["CC(=O)[O-].[K+]", "292 °C"],
  ["COC(=O)c1ccc(N)cc1", "110 °C"],
  ["CCCCCCCCCCCCCC", "5.8 °C"]
]}
